Source: ChEMBL document CHEMBL1134801

# measurement_target: Plasminogen (Homo sapiens, UniProt P00747)
# Sequence (P00747 97-580 limits assumed): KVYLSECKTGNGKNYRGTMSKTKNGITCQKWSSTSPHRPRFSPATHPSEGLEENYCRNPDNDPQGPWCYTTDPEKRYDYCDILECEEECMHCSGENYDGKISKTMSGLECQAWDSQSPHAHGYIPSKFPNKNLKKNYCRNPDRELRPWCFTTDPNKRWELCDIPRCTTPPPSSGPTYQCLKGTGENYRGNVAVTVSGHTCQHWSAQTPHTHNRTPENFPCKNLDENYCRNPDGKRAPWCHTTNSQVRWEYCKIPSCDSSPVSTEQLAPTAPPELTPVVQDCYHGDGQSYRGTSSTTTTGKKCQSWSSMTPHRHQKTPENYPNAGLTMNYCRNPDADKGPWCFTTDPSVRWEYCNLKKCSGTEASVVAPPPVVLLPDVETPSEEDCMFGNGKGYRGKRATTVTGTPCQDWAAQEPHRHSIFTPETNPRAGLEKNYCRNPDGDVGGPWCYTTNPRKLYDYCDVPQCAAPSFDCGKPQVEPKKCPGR
# Sequence (P00747 581-810 limits assumed): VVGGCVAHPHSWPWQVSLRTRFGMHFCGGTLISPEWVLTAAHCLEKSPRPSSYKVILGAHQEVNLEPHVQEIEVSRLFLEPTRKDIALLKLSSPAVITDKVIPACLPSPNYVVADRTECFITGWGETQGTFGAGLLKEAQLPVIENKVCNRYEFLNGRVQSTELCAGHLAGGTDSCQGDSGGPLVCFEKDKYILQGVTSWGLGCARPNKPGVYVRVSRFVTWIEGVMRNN
# procedure_text: Inhibition plasmin in human mast cells
pKi: −log10 of the molar value.
outcome_measure: pKi

compound `N=C(N)c1ccc(CNC(=O)N2CCN(C(=O)O[C@H]3CCC[C@@H](OC(=O)N4CCN(C(=O)CCCC5CCNCC5)CC4)CCC3)CC2)cc1` , pKi observed: 3.51

(P) N=C(N)c1ccc(C(=O)NCC2CCN(C(=O)O[C@H]3CCC[C@@H](OC(=O)N4CCC(CNC(=O)c5ccc(C(=N)N)cc5)CC4)CCC3)CC2)cc1
(Q) N=C(N)c1ccc(NC(=O)CC2CCN(C(=O)O[C@H]3CCC[C@@H](OC(=O)N4CCN(C(=O)NCCC5CCNCC5)CC4)CCC3)CC2)cc1
-- ask Identify the entry with the smaller pKi: P or Q . Answer = label.
-- reply Q

---

# measurement_target: Trypsin (Homo sapiens, UniProt P07477+P07478+P35030)
# procedure_text: Inhibition of trypsin in human mast cells
# Format: cell-based
outcome_measure: Ki (µM)

(I) N=C(N)c1ccc(CNC(=O)N2CCN(C(=O)O[C@H]3CCC[C@@H](OC(=O)N4CCN(C(=O)CCCC5CCNCC5)CC4)CCC3)CC2)cc1
(II) N=C(N)c1ccc(CNC(=O)N2CCN(C(=O)O[C@H]3CCC[C@@H](OC(=O)N4CCN(C(=O)NCc5ccc(C(=N)N)cc5)CC4)CCC3)CC2)cc1
(III) N=C(N)c1ccc(S(=O)(=O)NCC2CCN(C(=O)O[C@H]3CCC[C@@H](OC(=O)N4CCN(C(=O)NCCC5CCNCC5)CC4)CCC3)CC2)cc1
(IV) N=C(N)c1ccc(C(=O)NCC2CCN(C(=O)OCc3ccc(COC(=O)N4CCC(CNC(=O)c5ccc(C(=N)N)cc5)CC4)cc3)CC2)cc1
-- ask Arrange these 4 compounds in increasing order of Ki. Answer format: the labels, in the requested order.
-- reply IV, III, II, I
(IV: 4.4 µM, III: 16.8 µM, II: 25 µM, I: 52.1 µM)

(a) N=C(N)c1ccc(CC(=O)N2CCN(C(=O)O[C@H]3CCC[C@@H](OC(=O)N4CCN(C(=O)NCCC5CCNCC5)CC4)CCC3)CC2)cc1
(b) N=C(N)c1ccc(C(=O)NCC2CCN(C(=O)O[C@H]3CCC[C@@H](OC(=O)N4CCN(C(=O)NCCC5CCNCC5)CC4)CCC3)CC2)cc1
(c) NCC1CCN(C(=O)NCC2CCN(C(=O)OCc3ccc(COC(=O)N4CCC(CNC(=O)N5CCC(CN)CC5)CC4)cc3)CC2)CC1
(d) N=C(N)c1ccc(C(=O)NCC2CCN(C(=O)O[C@H]3CCC[C@@H](OC(=O)N4CCC(CNC(=O)c5ccc(C(=N)N)cc5)CC4)CCC3)CC2)cc1
(e) N=C(N)c1ccc(NC(=O)CC2CCN(C(=O)O[C@H]3CCC[C@@H](OC(=O)N4CCN(C(=O)NCCC5CCNCC5)CC4)CCC3)CC2)cc1
-- ask # rank by Ki, ascending (min first) Answer format: the labels, in the requested order.
-- reply d, e, b, a, c

---

# measurement_target: UniProt:P00734
# procedure_text: Inhibition of thrombin in human mast cells
pKi: −log10 of the molar value.
outcome_measure: pKi

compound `N=C(N)c1ccc(NC(=O)CC2CCN(C(=O)O[C@H]3CCC[C@@H](OC(=O)N4CCN(C(=O)NCCC5CCNCC5)CC4)CCC3)CC2)cc1` , pKi observed: 4.28

compound `N=C(N)c1ccc(C(=O)NCC2CCN(C(=O)O[C@H]3CCC[C@@H](OC(=O)N4CCN(C(=O)NCCC5CCNCC5)CC4)CCC3)CC2)cc1` , pKi observed: 4.39

compound `N=C(N)N1CCC(CNC(=O)CNC(=O)OCc2ccc(COC(=O)NCC(=O)NCC3CCN(C(=N)N)CC3)cc2)CC1` , pKi observed: 3.41

compound `N=C(N)c1ccc(C(=O)NCC2CCN(C(=O)O[C@H]3CCC[C@@H](OC(=O)N4CCC(CNC(=O)c5ccc(C(=N)N)cc5)CC4)CCC3)CC2)cc1` , pKi observed: 4.68

compound `COC(=O)NC(=N)c1ccc(CNC(=O)N2CCN(C(=O)O[C@H]3CCC[C@@H](OC(=O)N4CCN(C(=O)NCCC5CCNCC5)CC4)CCC3)CC2)cc1` , pKi observed: 3.25

compound `N=C(N)N1CCC(CCNC(=O)CNC(=O)OCc2ccc(COC(=O)NCC(=O)NCCC3CCN(C(=N)N)CC3)cc2)CC1` , pKi observed: 3.37

compound `N=C(N)c1ccc(C(=O)NCC2CCN(C(=O)O[C@H]3CCC[C@@H](OC(=O)N4CCN(C(=O)CCCC5CCNCC5)CC4)CCC3)CC2)cc1` , pKi observed: 4.50

compound `N=C(N)c1ccc(CNC(=O)N2CCN(C(=O)O[C@H]3CCC[C@@H](OC(=O)N4CCN(C(=O)NCCC5CCNCC5)CC4)CCC3)CC2)cc1` , pKi observed: 3.95

(a) N=C(N)c1ccc(CNC(=O)N2CCN(C(=O)O[C@H]3CCC[C@@H](OC(=O)N4CCN(C(=O)CCCC5CCNCC5)CC4)CCC3)CC2)cc1
(b) N=C(N)c1ccc(C(=O)NCC2CCN(C(=O)OCc3ccc(COC(=O)N4CCC(CNC(=O)c5ccc(C(=N)N)cc5)CC4)cc3)CC2)cc1
-- ask Identify the entry with the smaller pKi: a or b . Answer = label.
-- reply a
(a: 3.99, b: 4.37)
